Each entry below carries its measured AC50, system: Neuronal acetylcholine receptor subunit alpha-4 (Homo sapiens, UniProt P43681). Also: assay procedure not described here.
Sequence (P43681 whole entry): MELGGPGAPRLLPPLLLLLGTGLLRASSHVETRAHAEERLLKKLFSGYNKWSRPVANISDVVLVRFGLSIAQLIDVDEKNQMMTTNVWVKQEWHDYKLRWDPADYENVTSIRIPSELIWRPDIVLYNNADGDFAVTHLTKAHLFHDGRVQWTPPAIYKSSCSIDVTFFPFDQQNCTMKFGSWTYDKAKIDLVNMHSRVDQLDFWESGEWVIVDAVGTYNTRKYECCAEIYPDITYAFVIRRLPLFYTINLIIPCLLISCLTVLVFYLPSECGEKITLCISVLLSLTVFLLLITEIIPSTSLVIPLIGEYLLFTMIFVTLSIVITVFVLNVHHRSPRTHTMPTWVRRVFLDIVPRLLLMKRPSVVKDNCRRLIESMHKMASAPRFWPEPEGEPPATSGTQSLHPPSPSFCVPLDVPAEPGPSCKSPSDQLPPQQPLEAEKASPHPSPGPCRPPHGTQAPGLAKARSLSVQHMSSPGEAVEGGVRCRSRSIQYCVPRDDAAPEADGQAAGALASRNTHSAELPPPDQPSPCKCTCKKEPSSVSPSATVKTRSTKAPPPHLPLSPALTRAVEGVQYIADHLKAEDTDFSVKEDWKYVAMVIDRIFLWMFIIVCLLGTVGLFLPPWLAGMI

Would you please look over these solved cases?
| molecule | valueObserved |
| --- | --- |
| CC(C(=O)O)c1ccc(-c2ccccc2)c(F)c1 (centres undefined) | > 10 µM |
| Cc1cc2cc3c(C)cc(=O)oc3c(C)c2o1 | > 10 µM |
| C[C@@H](NCCCc1cccc(C(F)(F)F)c1)c1cccc2ccccc12 | > 1 µM |

AC50 of CCC(=O)O[C@]1(C(=O)SCF)[C@H](C)C[C@H]2[C@@H]3C[C@H](F)C4=CC(=O)C=C[C@]4(C)[C@@]3(F)[C@@H](O)C[C@@]21C [FLUTICASONE PROPIONATE] on Neuronal acetylcholine receptor subunit alpha-4 (Homo sapiens, UniProt P43681)?
> 30 µM
